Measured values drawn from the DeepSol protein solubility set for this set.

assayProcedure: soluble on expression in E. coli; label from the status in PepcDB or PDB records
parameterMeasured: soluble on expression in E. coli

[[record]]
primarysequence = "MFSEELEKIDWEETTKTIYSKTESDVLRALGKEHCDVDDFMALISPAAAKYLEPMAQLSKKYTEERFGKTISMFIPLYITNSCTNSCVYCGFHISNPMARTILTPEQIEDEYKAIKKLGPFENLLLVTGENPAKAGVPYLAKALDIAKKYFSNLKIEVMPLKAEEYAELKEHGLNGVICFQETYNKARYNIYHPRGMKSKFEWRVNGFDRMGQAGVHSIGMGVLIGLEEWRTDVTMMAYHLRYLQKKYWKTKYSVNFPRMRPAENGGFQPNVIMNDRELAQLTFAMRIFDHDVDISYSTREPAQIRDNMAGLGVTTMSAESKTEPGGYYTYPQALEQFHVSDERTAVEVEHALKSLGREPVWKDWDVSFDKFTPIR"
parametermeasured = "soluble on expression in E. coli"
observed = "not soluble"

[[record]]
primarysequence = "MAMQIKGVIFDFDGTLLDSVELRITAWKKAFQNFGVNVPEDLIRPMIGYPGIDLAKKFVKNPLDVEMLQEDYFLKNIESAKFFQDVIPTLAELRKRGIKTAVVTSTRRIVMQKFSLQVDHVVTIDDVSKGKPDPEPYLKALKMMGIPAEECIVVGDIENDLIPAKKLRCISVLVKHGRDISSNYADYEIENIADILNVIDHLAEKNNR"
parametermeasured = "soluble on expression in E. coli"
observed = "not soluble"

[[record]]
primarysequence = "MAKSSERFESLRRDIDALARRLDVPSVLIMRSLPRHMRVEASAGRLEDTYPIGAEGRKSVHEDGAKPLYCERVVDRDAPLHVRDSRQETEWAGNEDEVEFGLSNYLGYPVHAPDGTPYGTVCVLDSRPRDYSAEERALLEELRRKVEALLAETVS"
parametermeasured = "soluble on expression in E. coli"
observed = "not soluble"

[[record]]
primarysequence = "MADTGEVQFMKPFISEKSSKSLEIPLGFNEYFPAPFPITVDLLDYSGRSWTVRMKKRGEKVFLTVGWENFVKDNNLEDGKYLQFIYDRDRTFYVIIYGHNMCSEYRDFPQVAVEVDDYENGEEEEDGDDQDKHQ"
parametermeasured = "soluble on expression in E. coli"
observed = "soluble"

[[record]]
primarysequence = "MLNIFCPHCGELRSEEEFHAKGQAHIPRPLDPNACSDEEWGDYMFFRDNPRGLHHELWVHAAGCRKYFNVTRHTVTYEILETYLIGEQPSVVADGEKKPAVQGEPA"
parametermeasured = "soluble on expression in E. coli"
observed = "not soluble"


Give one value of soluble on expression in E. coli per listed sequence.
1. MCMMSHNKAFFLSLQHAAVSGVAVCLSVRRGAGSVPAGNRGKKTIITEYRITGTRALARCPTKPVTSMWNSSWTSRLEHHHHHH
2. GSSHHHHHHSSGRENLYFQGHMARPGMERWRDRLALVTGASGGIGAAVARALVQQGLKVVGCARTVGNIEELAAECKSAGYPGTLIPYRCDLSNEEDILSMFSAIRSQHSGVDICINNAGLARPDTLLSGSTSGWKDMFNVNVLALSICTREAYQSMKERNVDDGHIININSMSGHRVLPLSVTHFYSATKYAVTALTEGLRQELREAQTHIRATCISPGVVETQFAFKLHDKDPEKAAATYEQMKCLKPEDVAEAVIYVLSTPAHIQIGDIQMRPTGS

Found:
1: not soluble; 2: soluble
